- Test system: SN12C renal
- Protocol details: NCI-60 one-dose screen, 48 h
- Experimental parameters: 10 µM unless noted
- Method: Growth inhibition of the SN12C human tumor cell line is measured as a screen for anti-cancer activity. Cells are grown in 96 well plates and exposed to the test compound for 48 hours. Compounds are tested at a single concentration, which is 10^-5 M for most compounds. The reported endpoint is percent growth (GI% or GIPRCNT), where numbers from 0 - 100% represent growth inhibition, and numbers from -100% - 0 represent cell death. For example, a value of 40 represents 60% growth inhibition. […]
Compounds without any hit were thinned out: in the full panel of roughly 83,000, 20% have a hit. Calls of active or inactive are those of the source. The calls were made as follows: active = growth percent below 10; inactive = the rest.
Response enum: T for active, F for inactive

Study these solved cases before continuing.
[[record]]
molecule = "Clc1ccc2c(c1)nnn1c3ncccc3c(Br)c21"
label_class = "F"

[[record]]
molecule = "CCOC(=O)C1=C(N)Oc2cc(OC)ccc2C1c1ccc(F)c(F)c1 (stereo not drawn)"
label_class = "F"

[[record]]
molecule = "O=C(C[n+]1ccccc1Cl)c1ccc2c(c1)CCCC2"
label_class = "F"

[[record]]
molecule = "O=C1C(Cl)=C(Nc2cccc3cc4ccccc4nc23)C(=O)c2ccccc21"
label_class = "F"

[[record]]
molecule = "O=C(Nc1ccc(-n2ccc3c(NC(=O)c4ccccc4)ncnc32)cc1)Nc1cccc(Cl)c1Cl"
label_class = "T"


[Q] Give the logged outcome of this assay for the following molecule: Cc1c(NC(=O)c2sc3nc4c(cc3c2N)CN(Cc2ccccc2)CC4)cccc1C(F)(F)F
[A] F

[Q] Give the logged outcome of this assay for the following molecule: CCC1(C(N)=O)CC2C=CC1CC2 (stereo not drawn)
[A] F

[Q] Give the logged outcome of this assay for the following molecule: COc1ccc(OC)c(NCC(=O)n2nc(/C=C\c3ccc(O)c(OC)c3)cc2/C=C\c2ccc(O)c(OC)c2)c1
[A] F

[Q] Give the logged outcome of this assay for the following molecule: CNCCCOc1c(Br)cc(CCNC(=O)/C(Cc2ccc(OC)c(Br)c2)=N/O)cc1Br
[A] F

[Q] Give the logged outcome of this assay for the following molecule: S=c1[nH]nc(Cn2c3ccccc3c3ccncc32)o1
[A] F

[Q] Give the logged outcome of this assay for the following molecule: COC1=C(OC)C(=O)C=CC1=O
[A] F

----------
// growth lookup, one value per entry
- Test system: HT29 colon
- Protocol details: NCI-60 one-dose screen, 48 h (100 = growth as untreated, 0 = no growth, -100 = all killed)
- Experimental parameters: 10 µM unless noted
The panel holds about 83,000 compounds, 20% with a hit somewhere; the sample as a whole holds those more often.
Numbers only; they are read as %.

[[record]]
molecule = "c1cncc(-c2nc3ccccc3[nH]2)c1"
target_desc = "HT29 colon"
units_text = "%"
readout_value = 102

[[record]]
molecule = "CNC(=O)NN"
target_desc = "HT29 colon"
units_text = "%"
readout_value = 107

[[record]]
molecule = "CC(=O)O[C@@H]1[C@@H](OC(C)=O)[C@H](OC(C)=O)CO[C@H]1Nc1cccc2ccccc12"
target_desc = "HT29 colon"
units_text = "%"
readout_value = 84.2

[[record]]
molecule = "O=C(Nc1ccc(Cl)c(Cl)c1)Nc1ccc(Cl)c([N+](=O)[O-])c1"
target_desc = "HT29 colon"
units_text = "%"
readout_value = 2.02

[[record]]
molecule = "O=C(Nc1ccc(-n2cc(-c3ccncc3)c(-c3ccc(O)c(Cl)c3)n2)cc1)c1cc(C(F)(F)F)cc(C(F)(F)F)c1"
target_desc = "HT29 colon"
units_text = "%"
readout_value = 51.7

[[record]]
molecule = "O=C(O)c1cn(C2CC2)c2cc(N3CCN(C(=O)CSc4nc(NS(=O)(=O)c5ccccc5)cc(=O)[nH]4)CC3)c(F)cc2c1=O"
target_desc = "HT29 colon"
units_text = "%"
readout_value = 119

[[record]]
molecule = "O=C(Nc1ccc(-n2cc(-c3ccncc3)c(-c3ccc(O)c(Cl)c3)n2)cc1)c1cc(Cl)cc(Cl)c1"
target_desc = "HT29 colon"
units_text = "%"
readout_value = -19.5

[[record]]
molecule = "COc1ccc(/C=N/C2=NNC(C)(c3ccccc3O)N2C(Cc2c[nH]c3ccccc23)C(=O)O)cc1 (centres undefined)"
target_desc = "HT29 colon"
units_text = "%"
readout_value = 5.86


// recorded growth for COc1ccc(C(=O)NC(=O)Nc2ccc3c(c2)NC(=O)/C3=C\c2[nH]c(C)c(C(=O)O)c2C)cc1 : 45.1

----------
- Test system: EKVX NSCLC
- Protocol details: NCI-60 one-dose screen, 48 h (100 = growth as untreated, 0 = no growth, -100 = all killed)
- Experimental parameters: 10 µM unless noted
- Description: Growth inhibition of the EKVX human Non-Small Cell Lung tumor cell line is measured as a screen for anti-cancer activity. Cells are grown in 96 well plates and exposed to the test compound for 48 hours. Compounds are tested at a single concentration, which is 10^-5 M for most compounds. The reported endpoint is percent growth (GI% or GIPRCNT), where numbers from 0 - 100% represent growth inhibition, and numbers from -100% - 0 represent cell death. […]
This is part of a sample that, as a whole, favours compounds with a hit. Of some 83,000 tested, about 20% had one in any assay.
// growth lookup, one value per entry
Numbers only; they are read as %.

Some solved entries appear below for comparison.
[[record]]
molecule = "Clc1ccc(OCc2nc(-c3ccccc3)n[nH]2)c(Cl)c1"
target_desc = "EKVX NSCLC"
readout_value = 93.8

[[record]]
molecule = "O=C(Nc1ccc(-n2cc(-c3ccncc3)c(-c3ccc(O)c(Cl)c3)n2)cc1)c1ccc(Cl)c(Cl)c1"
target_desc = "EKVX NSCLC"
readout_value = 47.7

[[record]]
molecule = "CN(C)c1ccc(/C=N/N=C(N)N)cc1"
target_desc = "EKVX NSCLC"
readout_value = 89.3

[[record]]
molecule = "CCCCOc1c(N)cc(Cl)cc1C(=O)OCCN(CC)CC"
target_desc = "EKVX NSCLC"
readout_value = 104

[[record]]
molecule = "CCn1c(SCC(=O)c2ccc(Br)cc2)nnc1-c1cc2c([nH]c3ccccc32)c(-c2cccc(O)c2)n1"
target_desc = "EKVX NSCLC"
readout_value = 67.2

[[record]]
molecule = "COc1cc(CN(c2ccc(Cl)cc2)C2OC(=O)c3ccccc32)cc(OC)c1OC (stereo not given)"
target_desc = "EKVX NSCLC"
readout_value = 59.9


// recorded growth for O=C(Nc1ccc(F)cc1)Nc1ccc(Br)c(C(F)(F)F)c1 : 7.24

// recorded growth for CCOc1ccc(Cc2nccc3cc(OCC)c(OCC)cc23)cc1OCC : 42

// recorded growth for CC(Cc1cccc(C(F)(F)F)c1)NCCOC(=O)c1ccccc1 (stereo not given) : 84.6

// recorded growth for COc1ccc(Cn2cc3c(c2-c2cc(OC)c(OC)c(OC)c2)CCc2c(CO)noc2-3)cc1 : 45.8

----------
// growth lookup, one value per entry
- Test system: NCI-H226 lung
- Protocol details: NCI-60 one-dose screen, 48 h (100 = growth as untreated, 0 = no growth, -100 = all killed)
- Experimental parameters: 10 µM unless noted
This is part of a sample that, as a whole, favours compounds with a hit. Of some 83,000 tested, about 20% had one in any assay.
Numbers only; they are read as %.

Some solved entries appear below for comparison.
[[record]]
compound = "CCc1cccc(C)c1NC(=O)c1sc2nc3c(cc2c1N)CCCCC3"
readout_value = 50.7

[[record]]
compound = "O=C(NCCNc1nccc(-c2c(-c3cccc(O)c3)nc3sccn23)n1)c1ccccc1"
readout_value = 54.5


growth of O=c1c2ccccc2sc2c(N3CCCC3)nc3ccccc3c12 , assay on NCI-H226 lung, is 81.3

growth of CS(=O)(=O)Nc1cccc(-c2ccc3ncnc(Nc4ccc(F)c(Cl)c4)c3c2)c1 , assay on NCI-H226 lung, is 44.5

growth of COc1ccc(-c2cc3ccc(N(C)C)cc3nc2N)c(F)c1 , assay on NCI-H226 lung, is 48.2

growth of O=S(c1ccccc1)c1ccc2nnnn2n1 (stereo unspecified) , assay on NCI-H226 lung, is 103

growth of c1ccc([Se]CCCN2CCN(CCC[Se]c3ccccc3)CC2)cc1 , assay on NCI-H226 lung, is 116

growth of O=c1c2ccccc2sc2c(NCCCNCCO)nc3ccccc3c12 , assay on NCI-H226 lung, is 44.4

growth of O=C(COc1ccc(Cl)cc1)N1CCN(Cc2ccc3c(c2)OCO3)CC1 , assay on NCI-H226 lung, is 101

----------
- Tested on: HOP-62 NSCLC
- Protocol details: NCI-60 one-dose screen, 48 h (100 = growth as untreated, 0 = no growth, -100 = all killed)
- Experimental parameters: 10 µM unless noted
This is part of a sample that, as a whole, favours compounds with a hit. Of some 83,000 tested, about 20% had one in any assay.
Output T for records whose growth is lower than 70%, F for records at or above 70%.

Study these solved cases before continuing.
[[record]]
compound = "O=C1OC(c2ccc(-c3ccccc3)cc2)=C/C1=C/C=C/c1ccccc1"
label_class = "F"

[[record]]
compound = "CN[C@@H](CCCNC(N)=NC/C=C(/C)CCC=C(C)C)C(=O)N(C)[C@@H](CCCNC(N)=NCC=C(C)C)C(=O)N[C@H](C)[C@H](OS(=O)(=O)O)c1ccc(OS(=O)(=O)O)c(COS(=O)(=O)O)c1"
label_class = "F"

[[record]]
compound = "COc1ccc(/C(Cl)=N/N=C(\\Cl)c2cc(OC)c(OC)c(OC)c2)cc1OC(C)=O"
label_class = "F"

[[record]]
compound = "O=C(NCCNc1nccc(-c2c(-c3cccc(O)c3)nc3sccn23)n1)c1cc(N2CCOCC2)cc(C(F)(F)F)c1"
label_class = "F"

[[record]]
compound = "C#CC(=O)/C=C/CCCCCCC#CC(=O)CCC(=O)C#CCCCCCC/C=C/C(=O)C#C"
label_class = "T"


[Q] Identify whether the compound FC(F)(F)c1cn(CC2CNC2)c2ncnc(Cl)c12 records growth below 70%.
[A] F

[Q] Identify whether the compound Cc1ccc(NC(=O)CN2CCOCC2)cc1Cl records growth below 70%.
[A] F

[Q] Identify whether the compound CCOc1ccc(NC(=O)Nc2cc(C(C)C)ccc2C)cc1 records growth below 70%.
[A] F
